Test system: HOP-62 NSCLC
Assay: NCI tumour cell line growth inhibition, 48 h
Property Name: TGI

// known answers, use as guide
1. CC(C)CC(=O)CC(C)[C@]1(CCCOCc2ccccc2)C(=O)N2CCC3(C[C@@]24CCC[C@H]41)OCCO3 (stereo partly drawn): > 10 µM
2. C[N+]1(C(CO)Cc2c[nH]c3ccccc23)Cc2ccccc2C1 (stereo not drawn): > 100 µM

Entry O=S(=O)(c1ccccc1)C1CC(c2nc3ccccc3[nH]2)=NO1 (stereo not drawn) : reported TGI = ?
> 100 µM

Entry Nc1ccc(Oc2ccc(C34CC5CC(C3)CC(c3ccc(Oc6ccc(N)cc6C(F)(F)F)cc3)(C5)C4)cc2)c(C(F)(F)F)c1 : reported TGI = ?
44.9 µM

Entry NC(=O)c1ncn(C2C=CC(CP(=O)(O)O)C2)c1N (stereo not drawn) : reported TGI = ?
> 100 µM

Entry N#Cc1c(-c2ccc([N+](=O)[O-])cc2)c2c([nH]c1=O)-c1ccccc1CCC2 : reported TGI = ?
> 100 µM

Entry COc1cccc2c1C(=O)c1c(O)c3c(c(O)c1C2=O)C[C@](O)(C(=O)CO)C[C@H]3O[C@@H]1C[C@@H](NC(=O)CCCN(C)C2(c3ccc(F)cc3)CC3CCC2C3)[C@H](O)[C@@H](C)O1 (stereo partly drawn) : reported TGI = ?
10.6 µM

Entry O=C(O)CCC(NC(=O)c1ccc(Oc2nc3ccccc3nc2C(=O)O)cc1)C(=O)O (stereo not drawn) : reported TGI = ?
> 100 µM

----------
Tested on: A549 NSCLC
Test: NCI tumour cell line growth inhibition, 48 h; in the data active = GI50 below about 0.43 µM; inactive = the rest
Respond only with the outcome that fits, drawn from Yes = active, No = inactive

Worked set:
1. CCCCN(CCCC)P(=O)(Oc1ccccc1)Oc1ccccc1: No
2. COc1ccc(Sc2[nH]c(C=O)c3ccccc23)cc1: No
3. CC(C)CCN(CCC(C)C)CC(=O)Nc1ccc(S(=O)(=O)c2ccc(NC(=O)CN(CCC(C)C)CCC(C)C)cc2)cc1: No
4. OCC1OC(N2C=C(c3nc4ccccc4s3)C3C=CC=CC32)C(O)C(O)C1O (configuration not stated): No

For Oc1ccc(N=Nc2ccc(Br)cc2)c(O)c1 , what call appears in the results of this test?
No

For O=S(O)O.O=S(O)O.[Co].[NH2-].[NH2-].[NH2-].[NH2-] , what call appears in the results of this test?
No

For CN1CCN(C)C1c1ccc(C2N(C)CCN2C)cc1 , what call appears in the results of this test?
No

For COc1cc(OC)c(C(=O)/C=C/c2ccc(C#N)cc2)c(OC)c1 , what call appears in the results of this test?
No

----------
System: HOP-92 NSCLC
Assay: NCI tumour cell line growth inhibition, 48 h
Measured TGI accompanies every entry in the list below.
# output: bare number, implied unit µM

1. CC(C)[C@@]12C[C@@H](OC(=O)C3CO3)[C@@](C)(O1)[C@@H]1CC[C@@H](C)[C@H]1[C@@H]2OC(=O)/C=C/c1ccccc1 (stereo not given in full): 27.7

Entry Cc1[nH]c2ccccc2c1CO : reported TGI = ?
40.9

----------
System: HOP-92 NSCLC
Test: NCI tumour cell line growth inhibition, 48 h
Property Name: TGI

1. COc1ccc2c(n1)Sc1nc3ccccc3nc1N2: > 100 µM
2. COc1cc2c(/C=C3\C(=O)N(C)c4ccccc43)c[nH]c2cc1C: 79.4 µM
3. O=CN/C=C/c1ccccc1: > 100 µM
4. C=C(C)CC(C(=O)O)c1ccc(C)cc1 (stereo unspecified): > 100 µM
5. CC(=O)OCC12CC(CC1OC(C)=O)c1ccccc12 (stereo unspecified): > 100 µM
6. O=Cc1ccc(-c2ccc(-c3nc4ccccc4s3)cc2)o1: > 100 µM
7. Cc1cc(-c2nc3sc(C)cn3c2/C=N/N=C(N)N)c(C)s1: 8.21 µM
8. CCC1C(NC(=O)OC)C(=O)N1[C@@H](C)c1ccccc1 (stereo partly specified): > 100 µM

Under HOP-92 NSCLC: TGI value of O=C(CCN1CCCCC1)Nc1ccc2c(c1)C(=O)c1ccc(NC(=O)CCN3CCCCC3)cc1C2=O ?
29.2 µM

Under HOP-92 NSCLC: TGI value of O=C(/C=C/c1ccc([N+](=O)[O-])cc1)N1CCN(CCOC(c2ccc(F)cc2)c2ccc(F)cc2)CC1 ?
83.8 µM

Under HOP-92 NSCLC: TGI value of Nc1nc(Cl)c(N)c(NCC2(CO)CCC(OCc3ccccc3)C2)n1 (stereo unspecified) ?
> 100 µM

Under HOP-92 NSCLC: TGI value of COC(=O)c1c2c(c(C)[n+]([O-])c1C)C(=O)C(NCc1ccccc1)=CC2=O ?
6.61 µM

Under HOP-92 NSCLC: TGI value of O=c1c2ccccc2n2c(-c3ccccc3O)nnc2n1-c1ccccc1 ?
> 100 µM

Under HOP-92 NSCLC: TGI value of O=S(O)O.O=S(O)O.[Co].[NH2-].[NH2-].[NH2-].[NH2-] ?
> 100 µM

Under HOP-92 NSCLC: TGI value of O=C(NCCCCCCCCNC(=O)Nc1cccc2ccccc12)Nc1cccc2ccccc12 ?
36 µM

Under HOP-92 NSCLC: TGI value of O=C1CCCc2ccc([N+](=O)[O-])c(O)c21 ?
> 100 µM

Under HOP-92 NSCLC: TGI value of COc1cccc(/C=N\NC(=O)c2ccncc2)c1O ?
> 100 µM

Under HOP-92 NSCLC: TGI value of Cn1cc(NC(=O)Nc2cc(C(=O)Nc3cc(C(=O)Nc4ccc5cc(S(=O)(=O)O)cc(S(=O)(=O)O)c5c4)n(C)c3)n(C)c2)cc1C(=O)Nc1cc(C(=O)Nc2ccc3cc(S(=O)(=O)O)cc(S(=O)(=O)O)c3c2)n(C)c1 ?
> 100 µM

Under HOP-92 NSCLC: TGI value of Cc1ccc(-c2cc(C(=O)Nc3ccc(S(=O)(=O)N4CCCCC4)cc3)[nH]n2)c(O)c1 ?
> 100 µM

Under HOP-92 NSCLC: TGI value of Cc1[nH]c(C(=O)Nc2ccc(C(=O)NCCN)cc2OC(C)C)c(Cl)c1Cl ?
2.87 µM

Under HOP-92 NSCLC: TGI value of COC(=O)c1c(O)ccc2c1c1c(n2CCc2ccc(OC)c(OC)c2)C(=O)c2ccccc2C1=O ?
43.6 µM

----------
System: NCI/ADR-RES ovarian
Test: NCI tumour cell line growth inhibition, 48 h
Measured TGI accompanies every entry in the list below.

// known answers, use as guide
1. CC(C)[C@@]12C[C@@H](OC(=O)C3CO3)[C@@](C)(O1)[C@@H]1CC[C@@H](C)[C@H]1[C@@H]2OC(=O)/C=C/c1ccccc1 (stereo partly drawn): 37.4 µM
2. ClCc1ccccc1Cn1cnc2nc(Cl)nc(Cl)c21: 3.96 µM
3. Cc1ccc(/C(=N/NS(=O)(=O)c2cc(C)c(Cl)cc2Cl)Sc2cc(Cl)c(C)cc2S(N)(=O)=O)cc1: > 100 µM
4. O=S(O)O.O=S(O)O.[Co].[NH2-].[NH2-].[NH2-].[NH2-]: > 100 µM

Entry CCNCC(=O)Nc1ccc2c(c1)C(=O)c1ccc(NC(=O)CNCC)cc1C2=O : reported TGI = ?
28.3 µM

Entry Cc1ncc(C(=O)Nc2ccc(CN3CCN(C)CC3)c(C(F)(F)F)c2)cc1C#Cc1cnc(N)c2ccc(C#N)cc12 : reported TGI = ?
5.05 µM

Entry CCCCCCOC(=O)CC1=C(C)/C(=C/c2[nH]c(-c3ccc[nH]3)cc2OC)N=C1C : reported TGI = ?
1.33 µM

Entry COc1cc(OCCN(C)C)c2[nH]c(C(=O)N3CC(CCl)c4c3cc(N)c3ccccc43)cc2c1 (stereo not drawn) : reported TGI = ?
0.0498 µM

----------
Test system: SN12C renal
Test: NCI tumour cell line growth inhibition, 48 h
Measured TGI accompanies every entry in the list below.

// known answers, use as guide
1) Nc1nc(Cl)c(N)c(NCC2(CO)CCC(OCc3ccccc3)C2)n1 (stereo not given): > 100 µM
2) COC(=O)C(Cc1nc2ccc(Cl)cc2[nH]c1=O)C(=O)C(=O)Nc1cc(C)ccc1C (stereo not given): > 100 µM
3) C/C(=C/CC[C@](C)(OC1OC(CO)C(O)C(O)C1O)[C@H]1CC[C@]2(C)[C@@H]1CC[C@@H]1[C@@]3(C)CC[C@H](O)C(C)(C)[C@@H]3C[C@H](O)[C@]12CO)CO (stereo not given in full): > 100 µM
4) C=CC12CCCCC1CC(C(=O)OC)=C(O)C2 (stereo not given): > 100 µM
5) CC1(O)CC2C(CC1SC1CC3C(CC1(C)O)C3(C)C)C2(C)C (stereo not given): > 100 µM
6) CC1(C)CN(CC(=O)O)CC(Cc2ccc(OCC(=O)O)cc2)N(CC(=O)O)CC(C)(C)SS1 (stereo not given): > 100 µM

Entry C[N+]1(C(CO)Cc2c[nH]c3ccccc23)Cc2ccccc2C1 (stereo not given) : reported TGI = ?
> 100 µM

Entry Cc1ccc(S(=O)(=O)N(CCN)c2cc3c4c(c2)Oc2cccc5c2C4c2c(cccc2O3)O5)cc1 : reported TGI = ?
> 100 µM

Entry O=S(Cc1ccccc1)c1ccccc1Cn1cccc1 (stereo not given) : reported TGI = ?
> 100 µM

Entry CC1OC(n2cc(F)c(=O)[nH]c2=O)CCC1=O (stereo not given) : reported TGI = ?
> 100 µM

Entry O=C(NCCCCCCCCNC(=O)Nc1cccc2ccccc12)Nc1cccc2ccccc12 : reported TGI = ?
59.3 µM

Entry CCOc1ccc(N(CC(=O)N2CC(=O)Nc3cc(C)c(C)cc32)C(C)=O)cc1 : reported TGI = ?
> 100 µM

Entry CC(C)CCN(CCC(C)C)CC(=O)Nc1ccc(S(=O)(=O)c2ccc(NC(=O)CN(CCC(C)C)CCC(C)C)cc2)cc1 : reported TGI = ?
25.2 µM
